- measurement-target: UniProt P11712
- Sequence (P11712 whole entry): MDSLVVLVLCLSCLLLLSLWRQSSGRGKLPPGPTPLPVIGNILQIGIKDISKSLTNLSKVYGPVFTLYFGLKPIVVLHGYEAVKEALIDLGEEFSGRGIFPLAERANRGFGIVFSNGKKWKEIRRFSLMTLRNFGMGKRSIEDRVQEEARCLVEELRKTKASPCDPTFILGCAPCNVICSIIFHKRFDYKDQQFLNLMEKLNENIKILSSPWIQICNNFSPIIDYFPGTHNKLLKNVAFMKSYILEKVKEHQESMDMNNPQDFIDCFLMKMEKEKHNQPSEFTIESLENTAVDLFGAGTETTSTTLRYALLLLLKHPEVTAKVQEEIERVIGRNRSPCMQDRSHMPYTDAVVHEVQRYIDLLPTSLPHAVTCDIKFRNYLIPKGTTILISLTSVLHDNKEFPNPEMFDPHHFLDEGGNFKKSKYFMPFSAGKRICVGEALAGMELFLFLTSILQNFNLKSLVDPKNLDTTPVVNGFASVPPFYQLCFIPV
- protocol-details: Inhibition of CYP2C9 (unknown origin)
- Type: ADME
recorded-metric: IC50

Recorded IC50 of `C[C@@H](N[C@H]1CCN(c2ccc(CC(=O)O)cc2)C1)c1cccc2ccccc12.Cl.Cl` , please.
> 50 µM

----------
- protocol-details: Cmax in monkey at 1 mg/kg, po
- Format: ADME, organism-based, Macaca mulatta
- Parameters: dose 1 mg/kg, route oral
- experimental-conditions: rhesus monkey, in vivo
recorded-metric: Cmax (ng/mL)
Field format: number, assumed ng/mL, no unit text.

Recorded Cmax of `C[C@@H](N[C@H]1CCN(c2ccc(CC(=O)O)cc2)C1)c1cccc2ccccc12.Cl.Cl` , please.
746
